# target_entity: rh-α5β1 (Homo sapiens, UniProt P05556+P08648)
# Sequence (P08648 42-894 limits assumed): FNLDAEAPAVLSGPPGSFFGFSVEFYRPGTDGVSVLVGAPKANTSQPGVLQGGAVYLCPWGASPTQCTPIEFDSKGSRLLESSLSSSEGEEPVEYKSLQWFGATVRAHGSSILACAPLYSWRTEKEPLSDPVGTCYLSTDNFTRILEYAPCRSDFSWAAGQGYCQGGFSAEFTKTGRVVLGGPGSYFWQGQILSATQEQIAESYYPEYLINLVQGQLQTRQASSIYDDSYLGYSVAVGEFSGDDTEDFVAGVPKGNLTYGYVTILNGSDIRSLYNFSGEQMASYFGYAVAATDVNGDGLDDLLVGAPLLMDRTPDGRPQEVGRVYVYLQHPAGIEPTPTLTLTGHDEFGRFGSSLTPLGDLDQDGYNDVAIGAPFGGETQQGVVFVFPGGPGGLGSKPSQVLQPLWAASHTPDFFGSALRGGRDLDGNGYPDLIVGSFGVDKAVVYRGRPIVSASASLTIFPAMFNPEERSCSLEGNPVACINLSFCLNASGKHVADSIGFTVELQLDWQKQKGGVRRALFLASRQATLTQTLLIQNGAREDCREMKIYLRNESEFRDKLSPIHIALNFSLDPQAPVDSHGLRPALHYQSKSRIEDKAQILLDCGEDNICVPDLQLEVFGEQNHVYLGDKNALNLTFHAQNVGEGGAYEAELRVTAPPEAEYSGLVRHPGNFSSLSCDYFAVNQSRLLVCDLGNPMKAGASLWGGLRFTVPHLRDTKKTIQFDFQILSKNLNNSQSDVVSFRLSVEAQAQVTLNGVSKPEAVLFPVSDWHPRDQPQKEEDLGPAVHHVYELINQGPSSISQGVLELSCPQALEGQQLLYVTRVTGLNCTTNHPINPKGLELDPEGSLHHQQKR
# Sequence (P08648 895-995 limits assumed): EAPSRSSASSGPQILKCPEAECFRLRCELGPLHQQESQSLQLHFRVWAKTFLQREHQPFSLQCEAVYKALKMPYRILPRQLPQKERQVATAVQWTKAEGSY
# Sequence (P05556 21-728 limits assumed): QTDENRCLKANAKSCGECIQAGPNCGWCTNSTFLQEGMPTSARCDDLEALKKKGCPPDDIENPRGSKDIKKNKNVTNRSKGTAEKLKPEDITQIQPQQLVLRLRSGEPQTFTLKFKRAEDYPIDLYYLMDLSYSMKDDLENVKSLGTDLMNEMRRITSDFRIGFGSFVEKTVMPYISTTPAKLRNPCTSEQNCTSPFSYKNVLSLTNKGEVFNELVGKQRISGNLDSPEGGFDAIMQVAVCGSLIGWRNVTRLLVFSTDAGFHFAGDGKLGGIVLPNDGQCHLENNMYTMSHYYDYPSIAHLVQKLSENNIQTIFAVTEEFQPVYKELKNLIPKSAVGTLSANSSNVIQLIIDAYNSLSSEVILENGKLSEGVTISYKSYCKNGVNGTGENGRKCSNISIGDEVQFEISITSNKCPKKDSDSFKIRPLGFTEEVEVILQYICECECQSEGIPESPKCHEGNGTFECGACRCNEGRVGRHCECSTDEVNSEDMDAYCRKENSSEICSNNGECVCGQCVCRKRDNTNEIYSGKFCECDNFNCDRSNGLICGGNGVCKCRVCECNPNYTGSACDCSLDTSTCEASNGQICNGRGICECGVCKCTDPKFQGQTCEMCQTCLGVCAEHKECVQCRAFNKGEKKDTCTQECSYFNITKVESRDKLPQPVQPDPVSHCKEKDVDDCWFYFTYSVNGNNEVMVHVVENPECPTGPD
# test: Competition binding studies by Biolayer Interferometry (epitope groups)
# applied_conditions: immobilized mAb A-15B08; secondary mAb pre-mixed with 20 nM rh-α5β1
observed_property: Response (nm)
Field: numeric (nm). Do not append units.

Ask: Please give the measured Response (nm) for this molecule: A-15B08: anti-α5β1 antibody, VH SEQ ID NO:25, VL SEQ ID NO:26; tested as mouse hybridoma antibody and as human IgG4 chimera (antibody, V domains shown, A-15B08 VH Sequence; A-15B08 VL Sequence, tested as mouse hybridoma antibody and as human IgG4 chimera) VH: QVQLKESGPGLVAPSQSLSITCTISGFSLTSYGVHWVRQPPGKGLEWLVVIWSDGSTTYNSTLKSRLSISKDNSKSQVFFKMNSLQTDDTAMYYCARHYDYDGDWFAYWGQGTLVTVSA VL: QIVLTQSPAIMSASLGERVTMTCTASSRVSSNSLHWYQQKPGSSPKLWIYSTSNLASGVPARFSGSGSGTSYSLTISSMEAEDAATYYCHQYLRSPPTFGGGTKLEIK
Reply: −0.15

Ask: Please give the measured Response (nm) for this molecule: A2-7F01: anti-α5β1 antibody, VH SEQ ID NO:91, VL SEQ ID NO:92 (antibody, V domains shown, A2-7F01 VH Sequence; A2-7F01 VL Sequence) VH: QVQLQQPGAELVKPGASVKLSCKASGYTFTIYWINWVKQRPGQGLEWIGNIYPGSSSTNYNEKFKTKATLTVDTSSSTAYMQLSSLTSDDSAVYYCAITGTGGFAYWGQGTLVTVSA VL: ENVLTQSPAIMSASLGEKVTMSCRASSSVNYMYWYQQKSDASPKLWIYFTSSLAPGVPTRFSGSGSGNSFSLTISSMEGEDAATYYCQQLTGSPFTFGSGTRLEIK
Reply: 0.29
